This collection of values is drawn from paper PMC5027247.

Target: T1, TBK1 CTD(E696K) (human, UniProt Q9UHD2 677-729, E696K)
T1 sequence: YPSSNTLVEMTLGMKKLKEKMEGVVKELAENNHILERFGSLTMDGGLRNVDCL
Test: ITC
reported_property: pKd
A value of pKd is the negative decimal logarithm of a concentration given in moles per litre.

Using the record for SSDNMQHAYWELKREMSNLHLVTQVQAELLRKLKTSTAIK (domain or fragment) [NAP1 TBD (residues 215–254)] , report its pKd. 6.18
